System: Giardia intestinalis trophozoites
Assay: Drug susceptibility of Giardia trophozoites, ATP level by luminescence (BacTiter-Glo), 48 h incubation, anaerobic or microaerobic
Type: cell-based, Giardia intestinalis strain WB clone C6
Details: human (Caco-2 cells) versus Giardia intestinalis, Caco-2, SI = IC50,Caco-2/IC50,Giardia; Giardia under microaerobiosis; read-out: Selectivity (IC50,Caco/IC50,Giardia) Microaerobiosis
QUANTITY_MEASURED: selectivity ratio at 48 h

substance_smiles=Cc1ccc(-n2cc(Cn3c(=O)c(/C=C/C(=O)c4ccc(Br)cc4)cc4ccccc43)nn2)cc1 quantity_measured="selectivity ratio at 48 h" experimental_result="≥ 21"
substance_smiles=COc1ccccc1C(=O)/C=C/c1cc2ccccc2n(Cc2cn(-c3ccc(F)cc3)nn2)c1=O quantity_measured="selectivity ratio at 48 h" experimental_result="≥ 66"
substance_smiles=COc1ccc(C(=O)/C=C/c2cc3ccccc3n(Cc3cn(-c4ccc(Cl)cc4)nn3)c2=O)cc1 quantity_measured="selectivity ratio at 48 h" experimental_result="≤ 0.7"
substance_smiles=COc1cccc(C(=O)/C=C/c2cc3ccccc3n(Cc3cn(-c4ccc(F)cc4)nn3)c2=O)c1 quantity_measured="selectivity ratio at 48 h" experimental_result="≥ 37"
substance_smiles=O=C(/C=C/c1cc2ccccc2n(Cc2cn(-c3ccc(Cl)cc3)nn2)c1=O)c1ccc(Cl)cc1 quantity_measured="selectivity ratio at 48 h" experimental_result="≥ 27"
substance_smiles=COc1cccc(C(=O)/C=C/c2cc3ccccc3n(Cc3cn(-c4ccccc4)nn3)c2=O)c1 quantity_measured="selectivity ratio at 48 h" experimental_result="> 30"
substance_smiles=COc1ccc(-n2cc(Cn3c(=O)c(/C=C/C(=O)c4ccc(C)cc4)cc4ccccc43)nn2)cc1 quantity_measured="selectivity ratio at 48 h" experimental_result="≥ 53"
substance_smiles=COc1ccc(-n2cc(Cn3c(=O)c(/C=C/C(=O)c4ccc(Cl)cc4)cc4ccccc43)nn2)cc1 quantity_measured="selectivity ratio at 48 h" experimental_result="≥ 7"
substance_smiles=O=C(/C=C/c1cc2ccccc2n(Cc2cn(-c3ccccc3)nn2)c1=O)c1cccc(F)c1 quantity_measured="selectivity ratio at 48 h" experimental_result="≥ 71"
substance_smiles=Cc1ccc(C(=O)/C=C/c2cc3ccccc3n(Cc3cn(-c4ccc(C)cc4)nn3)c2=O)cc1 quantity_measured="selectivity ratio at 48 h" experimental_result="≥ 31"
substance_smiles=O=C(/C=C/c1cc2ccccc2n(Cc2cn(-c3ccc(Cl)cc3)nn2)c1=O)c1ccccc1F quantity_measured="selectivity ratio at 48 h" experimental_result="≥ 55"
substance_smiles=COc1ccc(-n2cc(Cn3c(=O)c(/C=C/C(=O)c4ccc(F)cc4)cc4ccccc43)nn2)cc1 quantity_measured="selectivity ratio at 48 h" experimental_result="≥ 15"
substance_smiles=COc1ccc(C(=O)/C=C/c2cc3ccccc3n(Cc3cn(-c4ccccc4)nn3)c2=O)cc1 quantity_measured="selectivity ratio at 48 h" experimental_result="≥ 125"
substance_smiles=COc1ccc(C(=O)/C=C/c2cc3ccccc3n(Cc3cn(-c4ccc(OC)cc4)nn3)c2=O)cc1 quantity_measured="selectivity ratio at 48 h" experimental_result="≥ 40"
substance_smiles=COc1ccc(C(=O)/C=C/c2cc3ccccc3n(Cc3cn(-c4ccc(C)cc4)nn3)c2=O)cc1 quantity_measured="selectivity ratio at 48 h" experimental_result="≥ 25"
substance_smiles=O=C(/C=C/c1cc2ccccc2n(Cc2cn(-c3ccc(Cl)cc3)nn2)c1=O)c1cccc(F)c1 quantity_measured="selectivity ratio at 48 h" experimental_result="≥ 111"
